# Tested on: SK-MEL-5 melanoma
# measurement.notes: NCI tumour cell line growth inhibition, 48 h; in the data active means GI50 below about 0.43 µM; inactive means the rest
Select the matching outcome among active, inactive

CC[n+]1c(/C=C/c2ccc(N3CCCC3)cc2)cccc1/C=C/c1ccc(N2CCCC2)cc1 ... active
O=C(O)c1ccc(NCn2nc(-c3ccccc3O)oc2=S)cc1O ... inactive
O=C([CH-]C(=O)c1ccccc1)c1ccccc1.O=C([CH-]C(=O)c1ccccc1)c1ccccc1.[CH2-]CCC.[CH2-]CCC.[Sn+4] ... active

stdin: Kindly provide the recorded test outcome for the following compound: O=C1NC(=N[C@@H]2C[C@H]2c2ccccc2)S/C1=C\c1ccc2ncccc2c1
stdout: inactive

stdin: Hello, I am checking results. What call was entered for O=C(NCCNc1nccc(-c2c(-c3ccc(F)cc3)nc3sccn23)n1)Nc1cccc(C(F)(F)F)c1 ?
stdout: inactive

stdin: Hi, do you know how Cc1cc(C)c2c(=O)cc(-c3ccc(F)cc3)[nH]c2n1 came out in this test?
stdout: inactive

stdin: Called result for NNC(=S)N/N=C/c1ccccn1
stdout: inactive

stdin: Can you look up the reported call for CC(=O)NS(=O)(=O)c1ccc(-n2nc(-c3ccccc3)cc2-c2cc(O)ccc2O)cc1 for me?
stdout: inactive

stdin: How was CCOC(=O)c1c2c(n(Cc3ccccc3)c1C)-c1nc[nH]c1C(=O)C2=O classified in this test?
stdout: inactive

stdin: In this assay, the call recorded for CN1CCN(C(=O)OCc2nc3c(N4CCOCC4)nc(-c4ccccc4)nc3n2C)CC1 was what?
stdout: inactive
